Where these numbers come from: patent US10780092B2

Molecular target: sGC α1/β1 heterodimer (Homo sapiens (Human), UniProt Q02108+Q02153)
Assay: Cell-based sGC functional assay (CASA assay), cGMP by HTRF
Conditions: CHO-K1, cGMP production as percentage of maximum of compound A (set to 100%); CHO-K1/sGC cells; read-out: % Activation
READOUT_NAME: Emax (%)

INSERT INTO measurements (compound, readout_name, quantitative_readout) VALUES
  ('CC1(c2ccc(Cl)c(O)c2)C(=O)Nc2nc(-c3cn4ncnc4c(Cc4ccc(F)cc4)n3)nc(N)c21 (stereo not shown) [Example 26-A]', 'Emax', 105),
  ('CC(C)CCc1nc(-c2nc(N)c3c(n2)NC(=O)C3(C)c2ccc(O)cc2)cn2ccnc12 (stereo not shown) [Example 58-B]', 'Emax', 121),
  ('CC1(c2cc(O)c(C#N)c(F)c2)C(=O)Nc2nc(-c3cn4ccnc4c(CC4CCCCC4)n3)nc(N)c21 (stereo not shown) [Example 18-B]', 'Emax', 88),
  ('CC1(c2ccc(O)c(Cl)c2)C(=O)Nc2nc(-c3cn4ncnc4c(Cc4ccc(F)cc4)n3)nc(N)c21 (stereo not shown) [Example 66-B]', 'Emax', 141),
  ('CC1(c2ccc(F)c(O)c2)C(=O)Nc2nc(-c3cn4ccnc4c(Cc4ccc(F)cc4F)n3)nc(N)c21 (stereo not shown) [Example 22-B]', 'Emax', 128),
  ('CC1(c2cc(O)c(Cl)c(F)c2)C(=O)Nc2nc(-c3cn4ccnc4c(Cc4cccc(F)c4)n3)nc(N)c21 (stereo not shown) [Example 5-B]', 'Emax', 113),
  ('Cc1cn2cc(-c3nc(N)c4c(n3)NC(=O)C4(C)c3ccc(Cl)c(O)c3)nc(Cc3ccccc3F)c2n1 (stereo not shown) [Example 100-A]', 'Emax', 106);

----------
Molecular target: sGC α1/β1 heterodimer (Homo sapiens (Human), UniProt Q02108+Q02153)
Assay: Cell-based sGC functional assay (CASA assay), cGMP by HTRF
Settings: inflection point of cGMP production, 4P fit; CHO-K1/sGC cells; read-out: IP
READOUT_NAME: EC50 (nM)

INSERT INTO assay_data (molecule, unit_string, quantitative_readout) VALUES
  ('CC1(c2ccc(Cl)c(O)c2)C(=O)Nc2nc(-c3cn4ccnc4c(Cc4cccc(F)c4)n3)nc(NCC(O)C(F)(F)F)c21 (stereo not shown) [Example 131-AB]', 'nM', 292),
  ('CC(C)CCc1nc(-c2nc(N)c3c(n2)NC(=O)C3(C)c2cc(O)ccn2)cn2ncnc12 (stereo not shown)', 'nM', 681),
  ('CC1(c2cccc(O)c2)C(=O)Nc2nc(-c3cn4ncnc4c(CCC(F)(F)C(F)(F)F)n3)nc(N)c21 (stereo not shown)', 'nM', 202),
  ('CC1(c2ccc(F)c(Cl)c2O)C(=O)Nc2nc(-c3cn4ccnc4c(Cc4cc(F)cc(F)c4)n3)nc(N)c21 (stereo not shown)', 'nM', 138);

A. CC1(c2ccc(C(F)(F)F)c(O)c2)C(=O)Nc2nc(-c3cn4ccnc4c(Cc4ccccc4F)n3)nc(N)c21 (stereo not shown)
B. CC1(c2cc(O)c(C#N)c(Cl)c2)C(=O)Nc2nc(-c3cn4ncnc4c(CC4CCCCC4)n3)nc(N)c21 (stereo not shown)
Out of A and B , name the one with the higher EC50. I would appreciate it if you answered with the label of your choice.
B
(B: 4120 nM, A: 2080 nM)

----------
Target: sGC α1/β1 heterodimer (Homo sapiens (Human), UniProt Q02108+Q02153)
Test: Cell-based sGC functional assay (CASA assay), cGMP by HTRF
Settings: CHO-K1, cGMP production as percentage of maximum of compound A (set to 100%); CHO-K1/sGC cells; read-out: % Activation
READOUT_NAME: Emax (%)

INSERT INTO results (molecule, readout_name, quantitative_readout) VALUES
  ('CC1(c2ccc(O)c(F)c2)C(=O)Nc2nc(-c3cn4ccnc4c(Cc4cccc(Cl)c4)n3)nc(N)c21 (stereo not shown)', 'Emax', 206),
  ('CC1(c2ccc(Cl)c(O)c2)C(=O)Nc2nc(-c3cn4ccnc4c(Cc4c(F)cccc4F)n3)nc(N)c21 (stereo not shown)', 'Emax', 138);

P. CC1(c2ccc(Cl)c(O)c2)C(=O)Nc2nc(-c3cn4ccnc4c(Cc4ccc(F)cc4)n3)nc(N3CCC(F)(F)CC3)c21 (stereo not shown)
Q. CC1(c2cc(O)c(C(F)(F)F)c(F)c2)C(=O)Nc2nc(-c3cn4ccnc4c(CC4CCCCC4)n3)nc(N)c21 (stereo not shown)
Out of P and Q , name the one with the higher Emax. I would appreciate it if you answered with the label of your choice.
Q
(Q: 138%, P: 66%)

----------
Target: sGC α1/β1 heterodimer (Homo sapiens (Human), UniProt Q02108+Q02153)
Experiment: Cell-based sGC functional assay (CASA assay), cGMP by HTRF
Details: inflection point of cGMP production, 4P fit; CHO-K1/sGC cells; read-out: IP
READOUT_NAME: EC50 (nM)

INSERT INTO results (compound, unit_string, quantitative_readout) VALUES
  ('CC1CCC(Cc2nc(-c3nc(N)c4c(n3)NC(=O)C4(C)c3ccc(O)c(Cl)c3)cn3ccnc23)CC1 (single isomer, unassigned) [Example 120-BB]', 'nM', 39),
  ('CC1(c2cc(O)c(C#N)c(F)c2)C(=O)Nc2nc(-c3cn4ncnc4c(Cc4cc(F)cc(F)c4)n3)nc(N)c21 (stereo not shown)', 'nM', 489);

I. CC1(c2cc(O)c(Cl)cn2)C(=O)Nc2nc(-c3cn4ncnc4c(CC4CCCCC4)n3)nc(N)c21 (stereo not shown)
II. CC1(c2cc(O)ccn2)C(=O)Nc2nc(-c3cn4ncnc4c(Cc4cccc(F)c4)n3)nc(N)c21 (stereo not shown)
Out of I and II , name the one with the higher EC50. I would appreciate it if you answered with the label of your choice.
II

----------
Target: human recombinant sGC enzyme (Homo sapiens (Human), UniProt Q02108+Q02153)
Assay: SEC competition binding assay with [3H] Compound B radioligand
Settings: displacement of 1.6 nM [3H] Compound B, 24 h at 37° C.
READOUT_NAME: Ki (nM)

Observe how each entry below is paired with its result.
INSERT INTO results (compound, target_under_test, readout_name, quantitative_readout) VALUES
  ('CC1(c2cccc(O)c2)C(=O)Nc2nc(-c3cn4ccnc4c(Cc4cc(F)cc(F)c4)n3)nc(N)c21 (stereo not shown) [Example 48-B]', 'human recombinant sGC enzyme (Homo sapiens (Human), UniProt Q02108+Q02153)', 'Ki', 0.723),
  ('CC1(c2ccc(Cl)c(O)c2)C(=O)Nc2nc(-c3cn4c(N)cnc4c(Cc4cccc(F)c4)n3)nc(N)c21 (stereo not shown) [Example 140-A]', 'human recombinant sGC enzyme (Homo sapiens (Human), UniProt Q02108+Q02153)', 'Ki', 0.827);

I. CC1(c2ccc(F)c(O)c2)C(=O)Nc2nc(-c3cn4ncnc4c(CCC(F)(F)C(F)(F)F)n3)nc(N)c21 (racemic) [Example 114-B]
II. CC1(c2ccc(O)cc2)C(=O)Nc2nc(-c3cn4ncnc4c(CCC(F)(F)C(F)(F)F)n3)nc(N)c21 (stereo not shown) [Example 80-B]
Out of I and II , name the one with the higher Ki. I would appreciate it if you answered with the label of your choice.
II
(II: 9.98 nM, I: 4.95 nM)

----------
Molecular target: sGC α1/β1 heterodimer (Homo sapiens (Human), UniProt Q02108+Q02153)
Assay: Cell-based sGC functional assay (CASA assay), cGMP by HTRF
Conditions: CHO-K1, cGMP production as percentage of maximum of compound A (set to 100%); CHO-K1/sGC cells; read-out: % Activation
READOUT_NAME: Emax (%)

INSERT INTO results (compound, readout_name, unit_string, quantitative_readout) VALUES
  ('CC1(c2ccc(Cl)c(O)c2)C(=O)Nc2nc(-c3cn4ccnc4c(Cc4cc(F)cc(F)c4)n3)nc(N)c21 (centres unmarked)', 'Emax', '%', 116),
  ('CC1(c2ccc(O)c(F)c2)C(=O)Nc2nc(-c3cn4ccnc4c(Cc4ccc(F)cc4)n3)nc(N)c21 (centres unmarked)', 'Emax', '%', 80),
  ('CCCCc1nc(-c2nc(N)c3c(n2)NC(=O)C3(C)c2ccc(O)c(Cl)c2)cn2ccnc12 (centres unmarked)', 'Emax', '%', 153),
  ('CCCCc1nc(-c2nc(N)c3c(n2)NC(=O)C3(C)c2cccc(O)c2)cn2ncnc12 (centres unmarked)', 'Emax', '%', 96),
  ('CC1(c2cc(O)c(Cl)c(F)c2)C(=O)Nc2nc(-c3cn4ccnc4c(Cc4cc(F)ccc4F)n3)nc(N)c21 (centres unmarked)', 'Emax', '%', 113),
  ('CC(C)CCc1nc(-c2nc(N)c3c(n2)NC(=O)C3(C)c2ccc(F)c(O)c2)cn2ccnc12 (centres unmarked)', 'Emax', '%', 103),
  ('CC1(c2cc(O)c(C#N)c(Cl)c2)C(=O)Nc2nc(-c3cn4ccnc4c(Cc4ccccc4F)n3)nc(N)c21 (centres unmarked)', 'Emax', '%', 79),
  ('CC1(c2ccc(Cl)c(O)c2)C(=O)Nc2nc(-c3cn4ncnc4c(CCC(F)(F)C(F)(F)F)n3)nc(N3CCC(C(F)(F)F)CC3)c21 (centres unmarked)', 'Emax', '%', 99),
  ('CC1(c2ccc(C(F)(F)F)c(O)c2)C(=O)Nc2nc(-c3cn4ccnc4c(Cc4cc(F)cc(F)c4)n3)nc(N)c21 (centres unmarked)', 'Emax', '%', 117),
  ('CC1(c2cc(O)c(Cl)c(F)c2)C(=O)Nc2nc(-c3cn4ccnc4c(CC4CCCCC4)n3)nc(N)c21 (centres unmarked)', 'Emax', '%', 116),
  ('CC1(c2ccc(Cl)c(O)c2)C(=O)Nc2nc(-c3cn4c(N)cnc4c(Cc4cccc(F)c4)n3)nc(N)c21 (centres unmarked)', 'Emax', '%', 101),
  ('CC1(c2cc(O)c(Cl)cn2)C(=O)Nc2nc(-c3cn4ccnc4c(Cc4cc(F)cc(F)c4)n3)nc(N)c21 (centres unmarked)', 'Emax', '%', 88),
  ('CCCCc1nc(-c2nc(N)c3c(n2)NC(=O)C3(C)c2cc(O)c(Cl)cn2)cn2ccnc12 (centres unmarked)', 'Emax', '%', 84),
  ('CC1(c2cccc(O)c2)C(=O)Nc2nc(-c3cn4ccnc4c(CCC4CCCCC4)n3)nc(N)c21 (centres unmarked)', 'Emax', '%', 109);
